Source listed as the supplement of paper PMC9732359.

assay: protein stability index of a GFP-peptide fusion (yeast GPS) (PSI 1-4); higher = more stable; sorted into four equal gates, so the index is relative within each strain
condition summary: san1∆
Documented protein stability index across a set of sequences
Give the figure by itself; no unit, no explanation.

Example entries begin here.
Task item: Please look up its protein stability index: IGGRRFSEGTSADREIQ [RPT4]
Reply: 1.98

Task item: Would you kindly share the measured protein stability index for NVRVGQAVETVGQAGRP [RPN1] ?
Reply: 3.19

Task item: # get_value(readout='protein stability index', item= STRASTVPNLPTTMVTN [ISW2] )
Reply: 2.35

Task item: So what's the measured protein stability index for this one? RDALRNIKNTNEEATPI [RRP6]
Reply: 2.86

Task item: Field request: protein stability index | item: PTGPKTAIDKNGNITYS [FAS2]
Reply: 3

More entries:
Task item: Entry PFSLTYVRTEETDGKHG [YMR129W/POM152] has what protein stability index?
Reply: 3

Task item: I have this sequence here, EEGEYKNAANTEGHKGH [ISW2] , and I need its recorded protein stability index.
Reply: 3.31

Task item: # lookup: protein stability index of HAMGGREGLIDTAVKTA [RPO21]
Reply: 1.23

###

assay: protein stability index of a GFP-peptide fusion (yeast GPS) (PSI 1-4); higher = more stable; sorted into four equal gates, so the index is relative within each strain
condition summary: san1∆
Recorded protein stability index by entry

Below, 6 sequences whose answers are already recorded.
Task item: May I ask what protein stability index has been recorded for SGSAGANPAGASQPEPT [YJL041W/NSP1] ?
Reply: 2.93

Task item: Given EEDVYLDPLARVSKDKK [FAS2] , state its recorded protein stability index.
Reply: 3.46

Task item: I am curious: what protein stability index value has been reported for EEDADQEESFSLNLGIG [SRB8] ?
Reply: 2.94

Task item: Using the record for NGTLIGCVSYSPAALKQ [YMR153W/NUP53] , report its protein stability index.
Reply: 1.83

Task item: protein stability index for KLKECPFDMGGYFIING [RPB2] ?
Reply: 2.72

Task item: Quick one: protein stability index of SSHAKGIVLEKLGIESK [RPS23A] ?
Reply: 2.67

Further cases:
Task item: Please give the measured protein stability index for this sequence: DSALRYSILGDRFKYRS [POP4]
Reply: 3.23

Task item: For the sequence shown here, DSVENSSNILEDILYYS [SRB8] , give the reported protein stability index.
Reply: 2.5

Task item: Any idea what its protein stability index is? The sequence is SDSSSEDEVKVEGPKFT [YLR335W/NUP2]
Reply: 3.4

Task item: What value of protein stability index has been reported for the following sequence? ERLMTWKFKSLIEILRL [RRI2]
Reply: 1.68

Task item: Name the recorded protein stability index for SIGEPATQMTLNTFHFA [RPO21] .
Reply: 3.04

Task item: So what does the record say about protein stability index for TDENTPSADGADKKDDS [ITC1] ?
Reply: 3.36

Task item: Form field: reported protein stability index of LYGPPGTGKTMLVKAVA [RPT3]
Reply: 1.15

Task item: What value of measured protein stability index is listed for ELRYQSHILNSHSLALN [DSN1] ?
Reply: 2.63

Task item: Can you look up the measured protein stability index of NPSEFTPNMVNSEISNL [SSN2] for me?
Reply: 2.58

Task item: Entry SPLYMDTETFDTVNSAL [YML103C/NUP188] : reported protein stability index = ?
Reply: 3.18

Task item: Any idea what its protein stability index is? The sequence is MFNNHEIDTILSTLRME [RPN9]
Reply: 2.84

Task item: Recorded protein stability index of MYTLSAQDEVFSLAFSP [ASC1] , please.
Reply: 2.78
